Experimental Protocol: Liver microsome stability test, Beagle dog liver microsome
Type: in vitro ADME
Study Conditions: microsomes, 0.5 mg protein/mL microsome, 1 μM compound, 37° C., NADPH, read-out: DLM 0.5 T1/2 (min), half life in Beagle dog liver microsome
Measure: half-life at 1 μM (min)
One number for each entry, in min.

Answered examples (3):
{"Sample Smiles": "CC(C)c1n(CCCCCCCCCCCC(F)(F)C(F)(F)C(F)(F)C(F)(F)C(F)(F)F)cc[n+]1Cc1c(Cl)cccc1Cl.[Cl-]", "Unit Abbreviation": "min", "half-life at 1 μM": 79.7}
{"Sample Smiles": "FC(F)(F)C(F)(F)C(F)(F)C(F)(F)C(F)(F)CCCCCCCCCCCn1cc[n+](Cc2c(Cl)cccc2Cl)c1C1CC1.[Cl-]", "Unit Abbreviation": "min", "half-life at 1 μM": 127}
{"Sample Smiles": "Cc1n(CCCCCCCCCCCC(F)(F)C(F)(F)C(F)(F)C(F)(F)C(F)(F)F)cc[n+]1Cc1c(F)cccc1Cl.[Cl-]", "Unit Abbreviation": "min", "half-life at 1 μM": 110}

We now examine a further compound.
Can you share its half-life at 1 μM? I mean this compound: Cc1n(CCCCCCCCCCCC(F)(F)C(F)(F)C(F)(F)C(F)(F)C(F)(F)C(F)(F)F)cc[n+]1Cc1c(Cl)cccc1Cl.[Cl-]
122

Taken from patent US12673921B2.
